Quick reference for kinase still bound, per cent of control among some compounds
Test system: ABL1 (human), P00519 [F317I]
Sequence (P00519 whole entry F317I, looked up): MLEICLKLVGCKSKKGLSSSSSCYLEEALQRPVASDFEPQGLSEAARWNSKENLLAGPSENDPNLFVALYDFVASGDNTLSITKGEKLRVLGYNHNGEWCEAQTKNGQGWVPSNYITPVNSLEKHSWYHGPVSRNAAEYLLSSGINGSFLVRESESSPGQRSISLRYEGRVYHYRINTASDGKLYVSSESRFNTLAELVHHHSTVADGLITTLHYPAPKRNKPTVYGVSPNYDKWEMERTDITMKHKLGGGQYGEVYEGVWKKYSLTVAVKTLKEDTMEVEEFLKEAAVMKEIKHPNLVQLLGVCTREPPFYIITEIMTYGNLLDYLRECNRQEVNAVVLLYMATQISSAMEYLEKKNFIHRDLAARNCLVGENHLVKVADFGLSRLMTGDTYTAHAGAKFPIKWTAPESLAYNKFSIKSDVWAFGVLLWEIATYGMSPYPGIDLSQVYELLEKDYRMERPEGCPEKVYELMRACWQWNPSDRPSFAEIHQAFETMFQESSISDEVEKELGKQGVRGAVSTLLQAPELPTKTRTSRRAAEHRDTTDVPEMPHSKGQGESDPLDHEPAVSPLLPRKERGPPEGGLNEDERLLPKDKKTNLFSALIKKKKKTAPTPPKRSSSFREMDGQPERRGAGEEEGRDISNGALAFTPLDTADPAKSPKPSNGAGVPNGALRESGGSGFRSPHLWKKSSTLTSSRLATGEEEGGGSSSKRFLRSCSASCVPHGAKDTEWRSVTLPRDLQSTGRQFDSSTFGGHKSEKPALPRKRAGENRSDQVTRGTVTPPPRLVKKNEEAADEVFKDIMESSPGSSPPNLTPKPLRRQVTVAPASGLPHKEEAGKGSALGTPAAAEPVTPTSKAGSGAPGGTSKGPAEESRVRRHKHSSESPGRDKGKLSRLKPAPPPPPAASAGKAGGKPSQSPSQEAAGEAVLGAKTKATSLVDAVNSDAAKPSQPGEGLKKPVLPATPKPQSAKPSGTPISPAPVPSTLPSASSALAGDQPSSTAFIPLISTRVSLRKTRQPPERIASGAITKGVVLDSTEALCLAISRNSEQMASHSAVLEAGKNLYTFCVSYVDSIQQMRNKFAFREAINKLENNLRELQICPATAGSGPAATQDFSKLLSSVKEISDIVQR
Assay Explanation: KINOMEscan competition binding
Experimental Setup: compound 10.0 µM
Show the value, then the unit it is measured in.

Example entries and their recorded answers appear below.
Exercise: Identify kinase still bound, per cent of control associated with the compound `COc1cc(N2CCC(O)CC2)ccc1Nc1ncc2c(n1)N1CCc3cccc(c31)C(=O)N2C`
Solution: 88%

Exercise: Identify kinase still bound, per cent of control associated with the compound `COc1cc(N2CCN(C)CC2)ccc1Nc1ncc2c(n1)N(c1ccccc1)CCC(=O)N2`
Solution: 17%

Exercise: Identify kinase still bound, per cent of control associated with the compound `CN1C(=O)c2ccccc2N(C)c2nc(Nc3ccc(N4CCC(O)CC4)cc3)ncc21`
Solution: 28%

Exercise: Identify kinase still bound, per cent of control associated with the compound `COc1cc(N2CCN(C)CC2)ccc1Nc1ncc2c(n1)N(C)c1ccccc1C(=O)N2`
Solution: 3.9%

Query compound follows.
Exercise: Identify kinase still bound, per cent of control associated with the compound `COc1cc(N2CCN(C)CC2)ccc1Nc1ncc2c(n1)N(C)c1sccc1C(=O)N2C`
Solution: 6.6%

----------
System Name: CDK5 (human)
Assay Explanation: KINOMEscan competition binding
Experimental Setup: compound 10.0 µM
Threshold check on kinase still bound, per cent of control: strictly below 70% is Satisfied; on or above 70% is Not satisfied.

Solved cases (5 shown):
Exercise: Strictly below 70% in kinase still bound, per cent of control? `CN1CCN(c2ccc(C(=O)Nc3ncc4c(n3)N(C)c3ccccc3C(=O)N4C)cc2)CC1`
Solution: Not satisfied

Exercise: Strictly below 70% in kinase still bound, per cent of control? `COc1cc(N2CCN(C)CC2)ccc1Nc1ncc2c(n1)N(C)c1sccc1C(=O)N2C`
Solution: Not satisfied

Exercise: Strictly below 70% in kinase still bound, per cent of control? `CN1C(=O)c2ccccc2N(C)c2nc(Nc3ccc(N4CCC(O)CC4)cc3)ncc21`
Solution: Not satisfied

Exercise: Strictly below 70% in kinase still bound, per cent of control? `COc1cc(N2CCN(C)CC2)ccc1Nc1ncc2c(n1)N(C)c1ccccc1N(C)C2=O`
Solution: Not satisfied

Exercise: Strictly below 70% in kinase still bound, per cent of control? `O=C1NC(=O)/C(=C/c2c[nH]c(=O)c(-c3ccc(N4CCNCC4)nc3)c2)S1`
Solution: Not satisfied

***
Exercise: Strictly below 70% in kinase still bound, per cent of control? `N=C1NC(=O)/C(=C/c2ccc(-c3ccc(C(N)=O)cc3O)o2)S1`
Solution: Satisfied

Exercise: Strictly below 70% in kinase still bound, per cent of control? `N=C1NC(=O)/C(=C/c2ccc(-c3ccc(F)cc3O)o2)S1`
Solution: Satisfied

Exercise: Strictly below 70% in kinase still bound, per cent of control? `COc1cc(N2CCC(O)CC2)ccc1Nc1ncc2c(n1)N1CCc3cccc(c31)C(=O)N2C`
Solution: Not satisfied

Exercise: Strictly below 70% in kinase still bound, per cent of control? `CN1C(=O)c2ccccc2N(C)c2nc(NS(=O)(=O)c3ccc(N)cc3)ncc21`
Solution: Not satisfied

Exercise: Strictly below 70% in kinase still bound, per cent of control? `COc1cc(N2CCN(C)CC2)ccc1Nc1ncc2c(n1)Nc1ccccc1NC2=O`
Solution: Not satisfied

Exercise: Strictly below 70% in kinase still bound, per cent of control? `N=C1NC(=O)/C(=C/c2ccc(-c3ccc(S(N)(=O)=O)cc3)o2)S1`
Solution: Satisfied
